# System: HBV in 2.2.15 cells
# method description: 2.2.15 cells: viral product in cell lysates quantified via quantitative real time PCR
# Type: cell-based, hepatitis B virus (HBV)
# recorded conditions: Hepatitis B virus, 120 h, day 5 post treatment, 50% reduction of viral product vs no drug controls, readout (qPCR, HBsAg or HBeAg) not specified for the column
Property: EC50; scope: individual compounds

A selection of reference data follows.
compound smiles: CC(C)[C@@H]1Cn2nc(C3CC3)c(-c3cn[nH]c3)c2-c2cc(=O)c(C(=O)O)cn21
EC50: 0.2 to 1 µM
--
compound smiles: Cc1sccc1-c1c(C2CC2)nn2c1-c1cc(=O)c(C(=O)O)cn1[C@H](C(C)(C)C)C2
EC50: < 0.1 µM
--
compound smiles: COc1ccc(-c2cnn3c2-c2cc(=O)c(C(=O)O)cn2[C@H](C(C)(C)C)C3)cc1
EC50: < 0.1 µM
--
compound smiles: CC(C)(C)[C@@H]1Cn2nc(-c3cccc(F)c3F)cc2-c2cc(=O)c(C(=O)O)cn21
EC50: < 0.1 µM
--
compound smiles: Cc1cccc(-c2c(C3CC3)nn3c2-c2cc(=O)c(C(=O)O)cn2[C@H](C(C)(C)C)C3)c1
EC50: < 0.1 µM

In: Please give the measured EC50 for this compound: CC(C)[C@@H]1Cn2nc(C3CC3)c(-c3ccc(F)cc3)c2-c2cc(=O)c(C(=O)O)cn21
Out: < 0.1 µM

In: Please give the measured EC50 for this compound: CC(C)(C)[C@@H]1Cn2ncc(-c3ccccc3F)c2-c2cc(=O)c(C(=O)O)cn21
Out: < 0.1 µM

In: Please give the measured EC50 for this compound: CC(C)(C)[C@@H]1Cn2nc(-c3c(O)cccc3F)cc2-c2cc(=O)c(C(=O)O)cn21
Out: < 0.1 µM
